Entry source: patent US8202910B2

- System: wild type of M.tb
- Experiment description: MIC, secondary screening, wild type
- Format: cell-based, Mycobacterium tuberculosis
- Condition summary: Mycobacterium tuberculosis, WT; EMB, RL241, Cmpd#59 as 2HCl salt, Cmpd#109 as 2CF3COOH salt; read-out: MIC
Measured property: MIC (µg/mL)

INSERT INTO assay_data (compound, recorded_value) VALUES
  ('CC[C@@H](CO)NCCN[C@@H](CC)CO [EMB, Ethambutol, reference compound]', 3.12),
  ('C[C@@H]1C2C[C@@H](C[C@H]1NCCNC[C@@H]1CCC3C[C@@H]1C3(C)C)C2(C)C', 6.25),
  ('CC(C)=CCC/C(C)=C/CNCCNC1C2CC3CC(C2)CC1C3 (stereo not drawn)', 0.1),
  ('CC1(C)C2CCC(CNCCNCC(c3ccccc3)c3ccccc3)[C@@H]1C2 (stereo partly drawn)', 1.5),
  ('CC1(C)CC2CC(C)(CN2CCNC[C@@H]2CCC3C[C@@H]2C3(C)C)C1', 6.25),
  ('C[C@@H]1[C@H]2C[C@@H](C[C@H]1NCCNC1CCCCCCC1)C2(C)C', 0.05);

* * *

- Experiment description: in vivo
- Parameters: species or system mice
- Condition summary: mouse, po, 25 mg/kg
Entries and their bioavailability values follow.
Measured property: bioavailability (%)

INSERT INTO measurements (compound, result_unit, recorded_value) VALUES
  ('CC(C)=CCC/C(C)=C/CNCCNC1C2CC3CC(C2)CC1C3 (stereo not drawn) [Compound 109]', '%', 2.7),
  ('CC1(C)C2CCC(CNCCNCC(c3ccccc3)c3ccccc3)[C@@H]1C2 (stereo partly drawn) [Compound 37]', '%', 3.3),
  ('C[C@@H]1[C@H]2C[C@@H](C[C@H]1NCCNC1CCCCCCC1)C2(C)C [Compound 59]', '%', 0.9);

* * *

- Experiment description: PK, tissue distribution, excretion and metabolism of compound 109 in mice
- Assay type: in vivo
- Condition summary: mouse, in vivo, iv, 3 mg/kg
Measured property: clearance (mL/min/kg)

INSERT INTO results (compound, measured_property, recorded_value) VALUES
  ('CC(C)=CCC/C(C)=C/CNCCNC1C2CC3CC(C2)CC1C3 (stereo not shown)', 'clearance', 63.1);

* * *

- System: cells
- Experiment description: LD50 for selectivity index (Table 10)
- Type: cell-based, Mycobacterium tuberculosis
- Condition summary: LD50 : MIC
Measured property: SI (Selectivity Index)

INSERT INTO measurements (compound, measured_property, recorded_value) VALUES
  ('c1ccc(C2CC2NCCNC23CC4CC(CC(C4)C2)C3)cc1 (stereo not shown) [Compound 65]', 'SI (Selectivity Index)', 3.84),
  ('CC(C)=CCC/C(C)=C/CNCCNC1C2CC3CC(C2)CC1C3 (stereo not shown) [Compound 109]', 'SI (Selectivity Index)', 16.39),
  ('CCC1CCCCN1CCNC/C=C(\C)CCC=C(C)C (stereo not shown) [Compound 111]', 'SI (Selectivity Index)', 5.632),
  ('CC1(C)C2CCC(CNCCNCC(c3ccccc3)c3ccccc3)[C@@H]1C2 (stereo partly shown) [Compound 37]', 'SI (Selectivity Index)', 2.048),
  ('C[C@@H]1[C@H]2C[C@@H](C[C@H]1NCCNC1CCCCCCC1)C2(C)C [Compound 59]', 'SI (Selectivity Index)', 2.048),
  ('COc1ccccc1CCNCCN[C@@H]1C[C@@H]2CC([C@H]1C)C2(C)C [Compound 151]', 'SI (Selectivity Index)', 5.248),
  ('c1ccc(C(CNCCNCC23CC4CC(CC(C4)C2)C3)c2ccccc2)cc1 [Compound 34]', 'SI (Selectivity Index)', 4.096),
  ('C[C@@H]1C2C[C@@H](C[C@H]1NCCNCC1CCC3C[C@@H]1C3(C)C)C2(C)C (stereo partly shown) [Compound 47]', 'SI (Selectivity Index)', 1.6),
  ('CC(CNCCC(c1ccccc1)c1ccccc1)NCC12CC3CC(CC(C3)C1)C2 (stereo not shown) [Compound 6]', 'SI (Selectivity Index)', 2.56),
  ('CC1(C)C2CCC(CNCCNC3CCCCCCC3)[C@@H]1C2 (stereo partly shown) [Compound 57]', 'SI (Selectivity Index)', 1.152);
